Assay Name: Plasma concentration in CB17 SCID mouse at 10 mg/kg, po measured after 3 hr by LC-MS/MS analysis
Assay type: ADME, organism-based
Readout Label: concentration at 3 h (ng/mL)

P: CC1(C)[C@H](NC(=O)c2ccc(N3CCN(CCCNc4ccc5c(c4)C(=O)N(C4CCC(=O)NC4=O)C5=O)CC3)cc2)C(C)(C)[C@H]1Oc1ccc(C#N)c(Cl)c1 (some centres undefined)
Q: CC1(C)[C@H](NC(=O)c2ccc(NCCCCCCNc3ccc4c(c3)C(=O)N(C3CCC(=O)NC3=O)C4=O)cc2)C(C)(C)[C@H]1Oc1ccc(C#N)c(Cl)c1 (some centres undefined)
R: CC1(C)[C@H](NC(=O)c2ccc(N3CCN(CCNc4ccc5c(c4)C(=O)N(C4CCC(=O)NC4=O)C5=O)CC3)cc2)C(C)(C)[C@H]1Oc1ccc(C#N)c(Cl)c1 (some centres undefined)
S: CC1(C)[C@H](NC(=O)c2ccc(NCCCCCNc3ccc4c(c3)C(=O)N(C3CCC(=O)NC3=O)C4=O)cc2)C(C)(C)[C@H]1Oc1ccc(C#N)c(Cl)c1 (some centres undefined)
I'd appreciate it if you could rank the molecules mentioned above by concentration at 3 h, largest value first. Return value: ordered labels per request.
R, P, S, Q
